- assay_system: T1, human CD40L, membrane-bound on cells (human, UniProt P29965 1-261)
- T1 sequence: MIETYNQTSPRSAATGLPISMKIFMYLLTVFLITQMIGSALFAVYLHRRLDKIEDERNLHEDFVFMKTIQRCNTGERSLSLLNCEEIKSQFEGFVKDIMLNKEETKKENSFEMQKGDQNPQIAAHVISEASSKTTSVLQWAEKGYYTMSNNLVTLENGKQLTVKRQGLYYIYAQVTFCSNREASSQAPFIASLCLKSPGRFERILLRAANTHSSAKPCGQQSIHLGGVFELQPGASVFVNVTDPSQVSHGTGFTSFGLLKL
- assay_explanation: cell-based or functional assay
readout_type: T-B cell MLR EC50

binder="BMS2h-572-622 (other) VH: EVQLLESGGGLVQPGGSLRLSCAASGFTFNWQLMGWVRQAPGKGLEWVSGIEGPGDVTYYADSVKGRFTISRDNSKNTLYLQMNSLRAEDTAVYYCVKVGKDSTSDYRGQGTLVTVSS" result="> 7 µM"
binder="BMS2h-572-617 (other) VH: EVQLLESGGGLVQPGGSLRLSCAASGFTFNWQLMGWVRQAPGKGLEWVSGIEGPGDVTYYADSVKGRFTISRDNSKNTLYLQMNSLRAEDTAVYYCVKVGRDSKSDYRGQGTLVTVSS" result="> 7 µM"

-- ask Please report the measured T-B cell MLR EC50 for BMS2h-572-610 (other) VH: EVQLLESGGGLVQPGGSLRLSCAASGFTFNWQLMGWVRQAPGKGLEWVSGIEGPGDVTYYADSVKGRFTISRDNSKNTLYLQMNSLRAEDTAVYYCVKVGKDSKSDYRGQGTLVTVSS
-- reply > 7 µM
